Each entry below lists one item and its recorded pKd value.
- Target Of Assay: T1, recombinant LILRB2 ECD (human, UniProt Q8N423 22-460)
- T1 construct: also called biotinylated LILRB2 ECD
- T1 sequence (Q8N423 22-460 limits assumed): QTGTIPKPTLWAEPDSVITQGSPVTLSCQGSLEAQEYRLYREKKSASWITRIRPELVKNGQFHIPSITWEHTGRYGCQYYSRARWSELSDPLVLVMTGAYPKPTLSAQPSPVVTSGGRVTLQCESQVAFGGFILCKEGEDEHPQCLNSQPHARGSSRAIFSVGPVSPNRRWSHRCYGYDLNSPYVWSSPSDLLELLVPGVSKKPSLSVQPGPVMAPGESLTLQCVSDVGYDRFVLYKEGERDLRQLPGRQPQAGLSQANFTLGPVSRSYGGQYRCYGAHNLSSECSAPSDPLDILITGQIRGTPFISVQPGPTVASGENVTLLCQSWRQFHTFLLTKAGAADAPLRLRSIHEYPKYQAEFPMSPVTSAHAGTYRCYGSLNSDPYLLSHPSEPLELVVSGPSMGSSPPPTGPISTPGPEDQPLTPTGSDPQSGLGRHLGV
- Experiment Description: BLI, IgG on AHC sensor, ECD in solution
pKd: −log10 of the molar value.
Measurement Type: pKd

• A-034 (antibody, V domains shown, tested as IgG) VH: QVQLVQSGAEVKKPGSSVKVSCKASGGTFSSYAISWVRQAPGQGLEWMGGIIPIFGTANYAQKFQGRVTITADESTSTAYMELSSLRSEDTAVYYCAKDLGTYSSGWPYYYGMDVWGQGTTVTVSS VL: SYELTQPPSVSVSPGQTASITCSGDKLGDKYASWYQQKPGQSPVLVIYQDSKRPSGIPERFSGSNSGNTATLTISGTQAEDEADYYCQLYGHTITVFGGGTKLTVL = 7.08
• A-007 (antibody, V domains shown, tested as IgG) VH: QVQLVQSGAEVKKPGSSVKVSCKASGGSFREYAFSWVRQAPGQGLEWMGSIIPTFHTSNYAGKFQGRVTITADESTSTAYMELSSLRSEDTAVYYCAKDLGTYSSGWPYYYGMDVWGQGTTVTVSS VL: SYELTQPPSVSVSPGQTASITCSGDKLGDKYASWYQQKPGQSPVLVIYQDSKRPSGIPERFSGSNSGNTATLTISGTQAEDEADYYCQSTTHTSFVFGGGTKLTVL = 8.92
• A-038 (antibody, V domains shown, tested as IgG) VH: QVQLVQSGAEVKKPGSSVKVSCKASGGTFSSYAISWVRQAPGQGLEWMGGIIPIFGTANYAQKFQGRVTITADESTSTAYMELSSLRSEDTAVYYCAKGPPVGSSSWYTDWYFDLWGRGTLVTVSS VL: SYELTQPPSVSVSPGQTASITCSGDKLGDKYASWYQQKPGQSPVLVIYQDSKRPSGIPERFSGSNSGNTATLTISGTQAEDEADYYCSLYGAGHTVVFGGGTKLTVL = 8.32
• A-016 (antibody, V domains shown, tested as IgG) VH: QVQLVQSGAEVKKPGSSVKVSCKASGGTFSSYAFNWVRQAPGQGLEWMGSIIPIFKTANYAQKFQGRVTITADESTSTAYMELSSLRSEDTAVYYCAKDLGTYSSGWPYYYGMDVWGQGTTVTVSS VL: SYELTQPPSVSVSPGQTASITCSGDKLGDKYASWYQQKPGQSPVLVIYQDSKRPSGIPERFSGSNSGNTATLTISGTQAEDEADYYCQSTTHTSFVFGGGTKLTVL = 8.85
• A-021 (antibody, V domains shown, tested as IgG) VH: QVQLVQSGAEVKKPGSSVKVSCKASGGSITSYAFAWVRQAPGQGLEWMGGIIPGFYAANYAQKFQGRVTITADESTSTAYMELSSLRSEDTAVYYCAKDLGTYSSGWPYYYGMDVWGQGTTVTVSS VL: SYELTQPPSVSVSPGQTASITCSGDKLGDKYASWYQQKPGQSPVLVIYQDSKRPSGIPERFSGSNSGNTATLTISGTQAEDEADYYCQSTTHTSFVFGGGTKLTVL = 8.51
• A-041 (antibody, V domains shown, tested as IgG) VH: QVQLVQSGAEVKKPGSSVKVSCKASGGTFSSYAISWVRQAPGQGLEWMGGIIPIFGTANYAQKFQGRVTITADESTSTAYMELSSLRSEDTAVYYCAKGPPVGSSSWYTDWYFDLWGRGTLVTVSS VL: SYELTQPPSVSVSPGQTASITCSGDKLGDKYASWYQQKPGQSPVLVIYQDSKRPSGIPERFSGSNSGNTATLTISGTQAEDEADYYCSSYGSGLTVVFGGGTKLTVL = 8.24
• A-029 (antibody, V domains shown, tested as IgG) VH: QVQLVQSGAEVKKPGSSVKVSCKASGYTFSIYAMSWVRQAPGQGLEWMGGIIPSFRTAVYAQKFQGRVTITADESTSTAYMELSSLRSEDTAVYYCAKGPPVGSSSWYTDWYFDLWGRGTLVTVSS VL: SYELTQPPSVSVSPGQTASITCSGDKLGDKYASWYQQKPGQSPVLVIYQDSKRPSGIPERFSGSNSGNTATLTISGTQAEDEADYYCLSYGAHSHGVVFGGGTKLTVL = 8.57
• A-013 (antibody, V domains shown, tested as IgG) VH: QVQLVQSGAEVKKPGSSVKVSCKASGGTFRQEAFSWVRQAPGQGLEWMGSIIPIFYSSNYAQKFQGRVTITADESTSTAYMELSSLRSEDTAVYYCAKDLGTYSSGWPYYYGMDVWGQGTTVTVSS VL: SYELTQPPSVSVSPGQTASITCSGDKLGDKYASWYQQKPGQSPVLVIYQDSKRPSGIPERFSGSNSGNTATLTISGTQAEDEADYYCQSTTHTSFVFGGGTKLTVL = 8.38
• A-010 (antibody, V domains shown) VH: QVQLVQSGAEVKKPGSSVKVSCKASGGTFQSQAFAWVRQAPGQGLEWMGSIIPGFSTANYAQKFQGRVTITADESTSTAYMELSSLRSEDTAVYYCAKDLGTYSSGWPYYYGMDVWGQGTTVTVSS VL: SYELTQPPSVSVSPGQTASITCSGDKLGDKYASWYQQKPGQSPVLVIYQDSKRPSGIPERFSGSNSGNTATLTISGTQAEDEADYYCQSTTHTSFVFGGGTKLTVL = 8.48
• A-031 (antibody, V domains shown, tested as IgG) VH: QVQLVQSGAEVKKPGSSVKVSCKASGYTFTKTAMSWVRQAPGQGLEWMGGIIPSYYTAVYAQKFQGRVTITADESTSTAYMELSSLRSEDTAVYYCAKGPPVGSSSWYTDWYFDLWGRGTLVTVSS VL: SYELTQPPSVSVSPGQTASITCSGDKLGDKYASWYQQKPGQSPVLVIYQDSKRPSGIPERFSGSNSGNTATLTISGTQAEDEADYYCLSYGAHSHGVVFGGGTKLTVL = 9.05

meta.source: patent US20260209345A1
